Target: T1, UNK ZnF1-3 (human, UniProt Q9C0B0 31-174)
T1 sequence: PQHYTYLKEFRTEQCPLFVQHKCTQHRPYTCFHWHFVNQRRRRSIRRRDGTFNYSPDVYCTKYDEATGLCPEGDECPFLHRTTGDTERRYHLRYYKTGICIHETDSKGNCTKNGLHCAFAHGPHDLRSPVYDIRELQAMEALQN
Assay: nsRBNS (natural sequence RNA bind-n-seq); RBNS binding buffer (assumed for nsRBNS): 25 mM Tris pH 7.5, 150 mM KCl, 3 mM MgCl2, 0.01% Triton X-100, 500 ug/ml BSA, 20 U/ml SUPERase-In, 4 C; UNK is unkempt and MSI1 is Musashi-1; names of the RNAs are library labels; protein concentration not given here; high values mean tight binding
In all, about 24,000 sequences were measured (“enrichment r”: median about 0.99, highest 2% from about 3.7 on). This is one part of a sample in which the highest values are shown more often than they occur.
recordedMetric: binding signal (enrichment R)
State the answer as a number, implicitly in enrichment R.

Task: Would you mind telling me what binding signal value was observed for chr7:56126341:56126342:+_ENSG00000146731_ENST00000540286|hu_mus|hu_hu_hu_mus_True|8_78 (ssRNA) RNA: GGGAGUUCUACAGUCCGACGAUCCAUGUUUCUCCUCUUGGCUCUGCGCAGAGCUACUAUGCCUUCUUUCGCAAGGGCAUCUAAGGAAAAGGGGUCAAUCCCCUUUUGAUUAAUAACGACAAAUCCUUUAUCUGAAUCACCACACAACAGAGGAUUGAGCAUCA ?
Output: 0.804

Task: chr5:159492046:159492047:+_ENSG00000113312_ENST00000231238|hu_hu|FALSE|FALSE (ssRNA) RNA: GGGAGUUCUACAGUCCGACGAUCAGUCAGCUUGUAAAGCUUUUGUUAUCUUUGUUAUCUGUUAUUAUUUGGAUUUUGAACGAAAUUGAUGGAGUACGAGCCGGUAGAGGAAUCCUGUUUGAUCUGGAAAUUUUCCGUGGAGAGCAACAGAGGAUUGAGCAUCA , same question.
Output: 3.66

Task: chr7:90019490:90019491:+_ENSMUSG00000057706_ENSMUST00000082237|mus_mus|FALSE|FALSE (ssRNA) RNA: GGGAGUUCUACAGUCCGACGAUCUCCGUCACAAUCGUGUGAUUAUUAAAAUAAUACAGUGUUCUUUGCCAUAAGGCCAUACUAAAAAUAAAAAGAUUUAACCCAGCUACAAAAAAGUUCACUGAACUUAAAUUAAAAUACUUGCAACAGAGGAUUGAGCAUCA , same question.
Output: 3.65

Task: chr7:90019433:90019434:+_ENSMUSG00000057706_ENSMUST00000082237|mus_hu|motif|central (ssRNA) RNA: GGGAGUUCUACAGUCCGACGAUCAAAUAAUACAGUGUUCUUUGCCAUAAGGCCAUACUAAAAUAAAAAGAUUUAACCCAGCGGCAAAAAAGUUCACUGAACUUAAAUUAAAAUACUUGUAAACAUCUUUGCAAUAUGAAAUAUCAACAGAGGAUUGAGCAUCA , same question.
Output: 3.64

Task: chr16:2758876:2758877:+_ENSG00000167977_ENST00000301738|hu_hu|FALSE|FALSE (ssRNA) RNA: GGGAGUUCUACAGUCCGACGAUCAAUUUUAGUGAAUUAAGUCUUAAUAUCUUUAAAUUAAAAAAACCACAAGCCUAUCUACUAUGUCAAGGUCAAAAAUCAAACAACGCUAAGCGGCCAGCAGCUCCCCAGAGAGGAUGCCCACAACAGAGGAUUGAGCAUCA , same question.
Output: 3.89

Task: chr18:43483763:43483764:-_ENSMUSG00000024501_ENSMUST00000121805|mus_hu|FALSE|FALSE (ssRNA) RNA: GGGAGUUCUACAGUCCGACGAUCGCAGACUCUUUUACCUUAGUGGCCUGUCUGAUUGCAUGCAUGUAAAUGGGGGGAGGGGAGUCAAACAAAUCAAGGCUAUGCAUAAACAGAAAACAAAGCAAUAUUCGUAAAGCUAGGCAACAACAGAGGAUUGAGCAUCA , same question.
Output: 1.62

Task: 160625162_160625282_3606_3pUTR_ENSG00000136536_ENST00000259050|human|control|control (ssRNA) RNA: GGGAGUUCUACAGUCCGACGAUCAAAACUACCACCCUUAAAUUUUAUAUUUUUGCUUUAAGACAGACAAUGCAAAGGUAACUGGCAAGAGGUGAGCAAAUGUUUUAGAACAUUUAUAUUAUUGCUUAAAAUGAGAUUUGAAAUCAACAGAGGAUUGAGCAUCA , same question.
Output: 8.45

Data origin: paper PMC12136788
